Biological target: EPHB2 (UniProt P29323)
Sequence (P29323 whole entry, looked up): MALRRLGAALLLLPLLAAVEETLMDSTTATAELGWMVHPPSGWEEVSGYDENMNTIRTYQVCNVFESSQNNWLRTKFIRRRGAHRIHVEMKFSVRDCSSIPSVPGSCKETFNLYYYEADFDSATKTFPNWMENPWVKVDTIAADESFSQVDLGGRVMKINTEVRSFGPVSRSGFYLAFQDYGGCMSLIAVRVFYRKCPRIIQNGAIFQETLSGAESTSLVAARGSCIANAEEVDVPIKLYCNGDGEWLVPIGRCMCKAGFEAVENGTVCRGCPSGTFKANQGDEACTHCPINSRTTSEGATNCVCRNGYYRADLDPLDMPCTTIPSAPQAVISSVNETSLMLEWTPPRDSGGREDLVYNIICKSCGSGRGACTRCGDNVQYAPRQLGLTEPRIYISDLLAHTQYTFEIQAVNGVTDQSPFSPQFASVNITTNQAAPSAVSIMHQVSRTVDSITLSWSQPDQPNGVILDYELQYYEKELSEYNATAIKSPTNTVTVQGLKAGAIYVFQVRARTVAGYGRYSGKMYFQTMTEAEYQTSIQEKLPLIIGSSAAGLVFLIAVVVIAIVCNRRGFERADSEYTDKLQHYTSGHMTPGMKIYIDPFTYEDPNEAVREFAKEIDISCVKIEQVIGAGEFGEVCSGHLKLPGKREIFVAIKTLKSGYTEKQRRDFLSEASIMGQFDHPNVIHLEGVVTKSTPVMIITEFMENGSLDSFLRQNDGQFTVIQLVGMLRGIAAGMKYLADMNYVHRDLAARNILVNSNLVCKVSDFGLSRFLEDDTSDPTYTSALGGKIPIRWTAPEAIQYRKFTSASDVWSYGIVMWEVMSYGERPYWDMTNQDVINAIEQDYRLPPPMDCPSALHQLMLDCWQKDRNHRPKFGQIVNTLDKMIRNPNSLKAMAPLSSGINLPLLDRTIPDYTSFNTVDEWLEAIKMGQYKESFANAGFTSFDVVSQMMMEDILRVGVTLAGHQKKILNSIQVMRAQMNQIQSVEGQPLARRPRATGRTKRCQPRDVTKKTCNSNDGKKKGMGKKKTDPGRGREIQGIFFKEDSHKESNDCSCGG
Test: phosphorylation enrichment, bacterial display (enrichment ratio); higher = better substrate or ligand; peptides without Tyr show the background
ASSAY READOUT: phosphorylation enrichment
The response must contain the number and no unit.

Known phosphorylation enrichment results, listed for orientation:
Query :: Please state recorded phosphorylation enrichment (tested on EPHB2 (UniProt P29323)) of DDKEFYSVHNK [MET_Y1235_Y1230D_YF]
Result :: 0.527

Query :: Please state recorded phosphorylation enrichment (tested on EPHB2 (UniProt P29323)) of RNNIEYVRDIG [MUSK_Y577]
Result :: 0.404

Query :: Please state recorded phosphorylation enrichment (tested on EPHB2 (UniProt P29323)) of FEGRSYSACTT [MMP9_Y241]
Result :: 0.616

Query :: Please state recorded phosphorylation enrichment (tested on EPHB2 (UniProt P29323)) of FEGAIYRKDIG [GART_Y417_V421I]
Result :: 0.464

Query :: Please state recorded phosphorylation enrichment (tested on EPHB2 (UniProt P29323)) of LVMFTYAIFGM [SCN1A_Y1684_I1683T]
Result :: 1.43

# context switch: different sequence, same phosphorylation enrichment
Query :: Please state recorded phosphorylation enrichment (tested on EPHB2 (UniProt P29323)) of SMAKYYASGIA [ACADSB_Y373_E376G]
Result :: 0.7

----------
Biological target: SHP2-C SH2
Assay: SH2 binding enrichment of the phosphorylated peptide, bacterial display (enrichment ratio); higher = better substrate or ligand; peptides without Tyr show the background
ASSAY READOUT: SH2 binding enrichment
The response must contain the number and no unit.

Known SH2 binding enrichment results, listed for orientation:
Query :: Which measured SH2 binding enrichment value corresponds to DLNATYCTIQG [U2SURP_Y634_R635C] ?
Result :: 0.7

Query :: Which measured SH2 binding enrichment value corresponds to TQRPFYKGGGG [TYROBP_Y112_YF] ?
Result :: 0.7

More entries:
Query :: Which measured SH2 binding enrichment value corresponds to TKDTFYKQPMF [GBA_Y451] ?
Result :: 0.692

Query :: Which measured SH2 binding enrichment value corresponds to QYRFIYMAVQH [PTPN11_Y515] ?
Result :: 0.713

Query :: Which measured SH2 binding enrichment value corresponds to WDLSEYSYKDP [ITGA3_Y237] ?
Result :: 0.704

----------
Listed next: entries and their corresponding SH2 binding enrichment.
Molecular target: SHP2-C SH2;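 also: peptide library displayed on the E. coli surface as eCPX fusions, selected cells deep-sequenced, score is each peptide's frequency after selection divided by its frequency in the input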
Assay: SH2 binding enrichment of the phosphorylated peptide, bacterial display (enrichment ratio); higher = better substrate or ligand; peptides without Tyr show the background
The response must contain the number and no unit.

Query :: Which measured SH2 binding enrichment value corresponds to NPQKSCFIRLF [WAS_Y83_Y83C_YF] ?
Result :: 0.817

Query :: Which measured SH2 binding enrichment value corresponds to GREEFYSTHPH [LRRK2_Y1402] ?
Result :: 0.607

Query :: Which measured SH2 binding enrichment value corresponds to KRAIGYYSATS [FAM120A_Y327] ?
Result :: 0.821

Query :: Which measured SH2 binding enrichment value corresponds to EEVKAYLDFGE [CHAC2_Y78_R82G] ?
Result :: 0.59

Query :: Which measured SH2 binding enrichment value corresponds to GISDEYHMIRH [GCDH_Y398_V400M] ?
Result :: 0.587

----------
System: AncSZ
Test: phosphorylation enrichment, bacterial display (enrichment ratio); higher = better substrate or ligand; peptides without Tyr show the background
ASSAY READOUT: phosphorylation enrichment
The response must contain the number and no unit.

Query :: Please state recorded phosphorylation enrichment (tested on AncSZ) of SEKIVYGHVDD [ACO2_Y71_L74V]
Result :: 0.715

Query :: Please state recorded phosphorylation enrichment (tested on AncSZ) of IEENGYNTYAS [FGF10_Y161]
Result :: 1.02

More entries:
Query :: Please state recorded phosphorylation enrichment (tested on AncSZ) of VDASYCGGRGV [ANTXR2_Y381_Y381C]
Result :: 0.712

----------
Target: MERTK (UniProt Q12866)
Sequence (Q12866 whole entry, looked up): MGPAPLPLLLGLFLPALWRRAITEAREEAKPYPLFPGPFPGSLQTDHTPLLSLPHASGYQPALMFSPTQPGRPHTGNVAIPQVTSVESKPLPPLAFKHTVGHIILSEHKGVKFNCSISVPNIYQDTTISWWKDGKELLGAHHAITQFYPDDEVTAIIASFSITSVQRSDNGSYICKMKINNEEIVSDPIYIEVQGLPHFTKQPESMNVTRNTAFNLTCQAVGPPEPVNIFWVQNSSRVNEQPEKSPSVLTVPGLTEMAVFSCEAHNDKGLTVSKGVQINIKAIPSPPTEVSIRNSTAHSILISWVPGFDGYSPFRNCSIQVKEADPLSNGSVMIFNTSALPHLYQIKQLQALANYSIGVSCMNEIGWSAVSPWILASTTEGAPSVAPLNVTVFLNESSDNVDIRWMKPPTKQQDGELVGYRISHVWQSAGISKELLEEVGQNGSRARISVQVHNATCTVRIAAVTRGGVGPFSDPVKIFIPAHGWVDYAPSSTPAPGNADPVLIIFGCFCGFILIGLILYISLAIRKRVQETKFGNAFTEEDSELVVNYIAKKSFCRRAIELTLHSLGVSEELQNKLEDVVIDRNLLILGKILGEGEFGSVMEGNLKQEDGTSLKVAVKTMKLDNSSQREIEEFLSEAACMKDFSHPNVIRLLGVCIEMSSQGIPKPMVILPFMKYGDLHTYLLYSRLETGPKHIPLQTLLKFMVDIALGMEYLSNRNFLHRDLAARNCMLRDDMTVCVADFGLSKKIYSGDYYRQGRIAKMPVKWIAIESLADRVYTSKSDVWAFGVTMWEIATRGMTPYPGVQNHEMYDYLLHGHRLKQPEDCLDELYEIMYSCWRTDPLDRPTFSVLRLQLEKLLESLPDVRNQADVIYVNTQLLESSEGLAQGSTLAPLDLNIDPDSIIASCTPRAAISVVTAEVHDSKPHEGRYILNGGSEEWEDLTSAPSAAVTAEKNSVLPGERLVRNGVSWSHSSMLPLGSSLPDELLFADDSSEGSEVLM
Experiment: phosphorylation enrichment, bacterial display (enrichment ratio); higher = better substrate or ligand; peptides without Tyr show the background
phosphorylation enrichment vs 0.4: at or above is Criterion met, below is Criterion not met.

Completed entries (count: 7):
Query :: Reported phosphorylation enrichment reaches at least 0.4 for PQEVTYAQLDH [KIR3DL2_Y398] ?
Result :: Criterion met

Query :: Reported phosphorylation enrichment reaches at least 0.4 for DGNTRYSTFSE [TKTL1_Y318_D315N] ?
Result :: Criterion not met

Query :: Reported phosphorylation enrichment reaches at least 0.4 for KRISCYEARYQ [PFKFB3_Y194_S197R] ?
Result :: Criterion not met

Query :: Reported phosphorylation enrichment reaches at least 0.4 for LNFNEYFRDLN [HPRT1_Y198_D194N_YF] ?
Result :: Criterion met

Query :: Reported phosphorylation enrichment reaches at least 0.4 for LLINKYGLSAH [SCP2_Y151] ?
Result :: Criterion not met

Query :: Reported phosphorylation enrichment reaches at least 0.4 for TLCLCYKETEE [ATP8B1_Y658_I661T] ?
Result :: Criterion met

Query :: Reported phosphorylation enrichment reaches at least 0.4 for EACPSYSHVVL [CHST6_Y168_R166P] ?
Result :: Criterion met

Turning now to a further record.
Query :: Reported phosphorylation enrichment reaches at least 0.4 for GHLYACDWISI [BEST1_Y227_Y227C] ?
Result :: Criterion met

----------
Listed next: entries and their corresponding phosphorylation enrichment.
Molecular target: Fes (UniProt P07332)
Sequence (P07332 whole entry, looked up): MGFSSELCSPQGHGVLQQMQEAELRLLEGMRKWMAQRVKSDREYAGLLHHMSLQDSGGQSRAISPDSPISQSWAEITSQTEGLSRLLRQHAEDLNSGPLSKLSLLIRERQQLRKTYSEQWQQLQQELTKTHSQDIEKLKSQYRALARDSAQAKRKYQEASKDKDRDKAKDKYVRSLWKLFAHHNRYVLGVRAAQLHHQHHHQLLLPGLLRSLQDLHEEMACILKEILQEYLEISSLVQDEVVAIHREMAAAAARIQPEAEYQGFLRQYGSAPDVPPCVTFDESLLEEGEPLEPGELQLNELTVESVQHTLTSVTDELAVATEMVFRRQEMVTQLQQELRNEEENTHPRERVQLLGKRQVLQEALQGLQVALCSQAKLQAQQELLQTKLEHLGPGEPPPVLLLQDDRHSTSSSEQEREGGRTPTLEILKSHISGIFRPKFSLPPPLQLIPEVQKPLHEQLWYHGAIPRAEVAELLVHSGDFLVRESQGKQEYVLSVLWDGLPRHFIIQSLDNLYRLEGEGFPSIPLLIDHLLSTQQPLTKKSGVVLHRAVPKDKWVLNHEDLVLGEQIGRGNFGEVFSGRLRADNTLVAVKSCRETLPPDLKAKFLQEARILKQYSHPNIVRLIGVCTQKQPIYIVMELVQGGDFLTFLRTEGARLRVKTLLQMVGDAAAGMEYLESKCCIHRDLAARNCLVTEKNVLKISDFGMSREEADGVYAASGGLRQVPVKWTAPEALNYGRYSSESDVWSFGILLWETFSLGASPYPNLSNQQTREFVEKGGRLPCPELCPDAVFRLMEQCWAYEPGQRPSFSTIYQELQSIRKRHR
Assay: phosphorylation enrichment, bacterial display (enrichment ratio); higher = better substrate or ligand; peptides without Tyr show the background
The response must contain the number and no unit.

Known phosphorylation enrichment results, listed for orientation:
Query :: Please state recorded phosphorylation enrichment (tested on Fes (UniProt P07332)) of KANEYYPVVLI [ADAMTS18_Y765]
Result :: 0.813

Query :: Please state recorded phosphorylation enrichment (tested on Fes (UniProt P07332)) of SVVVPYEPHEV [TP53_Y220_P223H]
Result :: 1.25

More entries:
Query :: Please state recorded phosphorylation enrichment (tested on Fes (UniProt P07332)) of GVRLFYRVMES [RB1_Y454_YF]
Result :: 1.42

----------
Target: EPHB1 (UniProt P54762)
Sequence (P54762 whole entry, looked up): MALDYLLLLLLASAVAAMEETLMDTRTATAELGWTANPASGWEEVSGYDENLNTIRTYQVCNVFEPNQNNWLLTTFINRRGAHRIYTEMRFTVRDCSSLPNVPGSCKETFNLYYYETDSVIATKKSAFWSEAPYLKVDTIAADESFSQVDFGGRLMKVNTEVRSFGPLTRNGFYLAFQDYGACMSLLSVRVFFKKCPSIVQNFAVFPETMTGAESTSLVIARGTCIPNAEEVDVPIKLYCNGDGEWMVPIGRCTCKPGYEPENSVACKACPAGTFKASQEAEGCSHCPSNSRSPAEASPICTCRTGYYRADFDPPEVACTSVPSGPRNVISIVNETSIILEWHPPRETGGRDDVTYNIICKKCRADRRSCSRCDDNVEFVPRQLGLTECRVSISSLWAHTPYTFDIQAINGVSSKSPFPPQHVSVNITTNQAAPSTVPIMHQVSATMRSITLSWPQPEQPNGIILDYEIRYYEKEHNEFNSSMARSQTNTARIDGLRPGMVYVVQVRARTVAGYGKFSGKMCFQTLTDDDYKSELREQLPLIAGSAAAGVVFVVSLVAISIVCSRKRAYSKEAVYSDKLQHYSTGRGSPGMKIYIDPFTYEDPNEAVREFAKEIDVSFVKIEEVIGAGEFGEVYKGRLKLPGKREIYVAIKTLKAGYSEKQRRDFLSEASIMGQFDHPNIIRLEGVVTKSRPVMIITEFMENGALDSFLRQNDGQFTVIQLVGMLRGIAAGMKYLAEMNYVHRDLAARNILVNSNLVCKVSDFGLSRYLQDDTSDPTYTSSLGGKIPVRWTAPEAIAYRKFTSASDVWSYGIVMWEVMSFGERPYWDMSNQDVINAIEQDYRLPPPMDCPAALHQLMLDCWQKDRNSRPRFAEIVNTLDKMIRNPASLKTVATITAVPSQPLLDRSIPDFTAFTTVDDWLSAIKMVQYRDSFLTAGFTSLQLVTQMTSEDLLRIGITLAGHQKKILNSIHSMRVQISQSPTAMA
Experiment: phosphorylation enrichment, bacterial display (enrichment ratio); higher = better substrate or ligand; peptides without Tyr show the background
Listed next: entries and their corresponding phosphorylation enrichment.
The response must contain the number and no unit.

Query :: Which measured phosphorylation enrichment value corresponds to ASKEPYFVHCI [MYO1D_Y585_R588H_YF] ?
Result :: 1.05

Query :: Which measured phosphorylation enrichment value corresponds to RAADYYSQQMA [GBP6_Y334] ?
Result :: 0.917

Query :: Which measured phosphorylation enrichment value corresponds to KDFTIYNPNLL [VANGL1_Y290] ?
Result :: 0.419

Query :: Which measured phosphorylation enrichment value corresponds to HNLDFYKKTTN [FGFR3_Y648_YF] ?
Result :: 1.76

Query :: Which measured phosphorylation enrichment value corresponds to ISGGGYRACPA [FGB_Y71_R74C] ?
Result :: 0.51

More entries:
Query :: Which measured phosphorylation enrichment value corresponds to LTFHMYADPNF [SOS1_Y618_YF] ?
Result :: 1.67

Query :: Which measured phosphorylation enrichment value corresponds to TRSYDYMEGGD [FGF7_Y58] ?
Result :: 0.58

Query :: Which measured phosphorylation enrichment value corresponds to LDFPEYNGVDR [CASQ1_Y43_D44N] ?
Result :: 1.09

Query :: Which measured phosphorylation enrichment value corresponds to EEGNPYFSSAR [MCCC2_Y520_YF] ?
Result :: 0.446

Query :: Which measured phosphorylation enrichment value corresponds to FRKNIYNVKST [SYNE2_Y575_YF] ?
Result :: 0.385

----------
Listed next: entries and their corresponding phosphorylation enrichment.
System: Fer (mouse)
Assay: phosphorylation enrichment, bacterial display (enrichment ratio); higher = better substrate or ligand; peptides without Tyr show the background

Known phosphorylation enrichment results, listed for orientation:
Query :: Please state recorded phosphorylation enrichment (tested on Fer (mouse)) of YYLGKYLQEVL [KLB_Y910]
Result :: 0.523

Query :: Please state recorded phosphorylation enrichment (tested on Fer (mouse)) of LTEEKYELKEG [TREM1_Y29]
Result :: 0.593

Query :: Please state recorded phosphorylation enrichment (tested on Fer (mouse)) of LHSEAYLKFNE [PBRM1_Y1610_I1614N_YF]
Result :: 0.493

Query :: Please state recorded phosphorylation enrichment (tested on Fer (mouse)) of KRAIGHYSATS [FAM120A_Y327_Y327H]
Result :: 0.356

Query :: Please state recorded phosphorylation enrichment (tested on Fer (mouse)) of VDASYYGGRGV [ANTXR2_Y381]
Result :: 0.46

Query :: Please state recorded phosphorylation enrichment (tested on Fer (mouse)) of FFSSEYHFVGG [CTSC_Y345_YF]
Result :: 0.526

Query :: Please state recorded phosphorylation enrichment (tested on Fer (mouse)) of KNEVLYDGENH [ARFGEF1_Y314]
Result :: 0.401

Query :: Please state recorded phosphorylation enrichment (tested on Fer (mouse)) of NHYKRYNLCAE [PTEN_Y68_I67R]
Result :: 0.488

More entries:
Query :: Please state recorded phosphorylation enrichment (tested on Fer (mouse)) of GGRKGYGGFSR [RECQL5_Y478_D480G]
Result :: 0.36

Query :: Please state recorded phosphorylation enrichment (tested on Fer (mouse)) of HAVEDYQAIVD [CCT7_Y263_T259A]
Result :: 0.653

Query :: Please state recorded phosphorylation enrichment (tested on Fer (mouse)) of PDDPNYSLVDD [PSTPIP2_Y323]
Result :: 1.07

Query :: Please state recorded phosphorylation enrichment (tested on Fer (mouse)) of KNKKDYFDMFE [SLC26A3_Y526_YF]
Result :: 0.418
